Recorded measurements of pEC50, one per entry
- target or test system: human β3 adrenergic receptor (Homo sapiens, UniProt P13945)
- Construct: expressed in transfected cells; host or cells: Chinese hamster ovary (CHO) cells, stably transfected
- Sequence (P13945 whole entry): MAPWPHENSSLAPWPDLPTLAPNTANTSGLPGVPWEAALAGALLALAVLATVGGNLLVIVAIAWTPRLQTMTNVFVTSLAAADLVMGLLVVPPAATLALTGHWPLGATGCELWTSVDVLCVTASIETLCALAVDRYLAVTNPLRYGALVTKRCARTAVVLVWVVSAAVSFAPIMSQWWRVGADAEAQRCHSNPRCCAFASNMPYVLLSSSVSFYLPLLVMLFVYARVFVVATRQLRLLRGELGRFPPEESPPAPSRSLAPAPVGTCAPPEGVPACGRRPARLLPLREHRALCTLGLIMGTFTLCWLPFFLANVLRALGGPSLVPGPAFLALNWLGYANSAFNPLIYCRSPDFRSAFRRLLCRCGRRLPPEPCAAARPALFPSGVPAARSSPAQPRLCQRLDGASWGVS
- experiment notes: Functional assay: cAMP production (LANCE TR-FRET) in CHO cells stably transfected with cloned β3 adrenergic receptor
- Type: cell-based
- test context: Table 4; human β3 functional activity; read-out: Human β Binding
pEC50: −log10 of the molar value.
measurement label: pEC50

item smiles	obs value
O=C(Cc1cccc(F)c1F)Nc1ccc(C[C@@H]2CC[C@H]([C@H](O)c3ccccc3)N2)cc1	7.00 to 7.96
O=C(Cn1[nH]c(=O)c2ccccc2c1=O)Nc1ccc(C[C@@H]2CC[C@H]([C@H](O)c3ccccc3)N2)cc1	8.00 to 9.00
O=C(CCc1nc(-c2ccccc2)no1)Nc1ccc(C[C@@H]2CC[C@H]([C@H](O)c3ccccc3)N2)cc1	8.00 to 9.00
NC(=O)c1nn(CC(=O)Nc2ccc(C[C@@H]3CC[C@H]([C@H](O)c4ccccc4)N3)cc2)c(=O)c2ccccc12	8.00 to 9.00

Data origin: patent US8399480B2
